Recorded measurements of growth inhibition, one per entry
Experiment: NCI Yeast Anticancer Drug Screen. Data for the wt2 strain (AID 169);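 also: 0% = growth of vehicle-treated yeast cultures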
Details: S. cerevisiae wt2 strain growth inhibition; at 11.0 µM; stronger effect = higher value
Experimental: Growth inhibition of yeast strains with defined genetic alterations is measured as a screen for potential anti-cancer activity. Selected strains with alterations in DNA damage repair or cell cycle control were exposed to compounds and growth inhibition was measured relative to vehicle treated controls. The strain used in this assay is wt2
About 79,000 compounds went through this panel and 15% of them were active in at least one assay; those are over-represented in the sample as a whole.

Molecule	growth inhibition [%]
CCOC1(c2cccc([N+](=O)[O-])c2)c2ccccc2Oc2ccccc21	1
Cc1c2ccnc(C(=O)NCCN(C)C)c2cc2c3cc(O)ccc3n(C)c12	7
CC(=O)ON=C1C=CC(=C(C#N)c2ccc(Cl)cc2)C=C1	9
CN(C)N=Nc1ccccc1C(=O)NC#N	98
CCCCCCOC(=O)NCCOC(=O)Nc1ccccc1	-1
O=C(CC(=O)n1nc(-c2ccccc2)c(N=Nc2ccc(Cl)cc2)c1-c1ccccc1)Nc1cccc(Cl)c1	-3
CCc1c[n+]([O-])c(C)cc1[N+](=O)[O-]	2
O=C(CC(C(=O)O)N1CCOCC1)c1ccccc1 (stereo not given)	0
O=C1c2cccnc2C(=O)C2C3C=CC(C3)C12 (stereo not given)	78
O=C1C=C(c2ccccc2)OC1(c1ccccc1)N1CCOCC1 (stereo not given)	-3
O=c1ccc2ccccc2c2ccccc12	69
C=C(Cl)COC(=O)Nc1cccc(Cl)c1	1
OC1(c2ccccc2)CCCc2ccc(Cl)cc21 (stereo not given)	-7
COC1CCC(O)C(/C=C/[N+](=O)[O-])C1 (stereo not given)	99
CN1C(=O)c2ccc3ccccc3c2C1=O	12
Nc1ccn(C2OC(COP(=O)(O)O)C(O)C2O)c(=O)n1 (stereo not given)	-1
C(=Nc1ccc(-c2cc(-c3ccccc3)nc3ccc4ccccc4c23)cc1)c1ccccc1	-17
CC(=O)Nc1ccc2c(c1)-c1ccccc1C2=O	-6
Oc1cccc2cc(Cl)cnc12	1
NC1CCCCC1N.Nc1c(N=Nc2ccc(-c3ccc(N=Nc4cc(S(=O)(=O)[O-])c5ccccc5c4N)cc3)cc2)cc(S(=O)(=O)[O-])c2ccccc12.[OH3+].[OH3+].[Pt+4]	86
Cc1c2cccc(Sc3ccccc3)c2c2c3c(cccc13)[S+](c1ccccc1)C2 (stereo not given)	97
CN(C)CCOC1(Cc2ccc(F)cc2)CCC(C(C)(C)C)CC1 (stereo not given)	-1
COC(=O)Nc1cn2ccc(C(Cl)=C(Cl)Cl)cc2n1	-50
CC(C)(C)[Si](C)(C)OCC1CCC(n2cnc3c(NC(=O)c4ccccc4)ncnc32)O1 (stereo not given)	-2
C=C(C(=C)n1nnc(C(=O)OC)c1C(=O)OC)n1nnc(C(=O)OC)c1C(=O)OC	1
O=C1Nc2ccccc2/C1=C/c1ccccc1	2
C#CCN(Cc1ccc2nc(N)[nH]c(=O)c2c1)c1ccc(C(=O)NC(CCC(=O)O)C(=O)O)cc1 (stereo not given)	11
Cc1ccc(NCCNCCO)c2c(=O)c3cc(O)ccc3sc12	4
Cc1cc(S(=O)(=O)Nc2nnc3cnc4ccccc4n23)c(S)cc1Cl	4
CNCCCNc1c2ccccc2nc2cccc([N+](=O)[O-])c12	86
O=C1C=C(Cl)C(=O)N1c1cccc(Cl)c1	100
CCOC(=O)C#Cc1ccc([N+](=O)[O-])cc1	4
Oc1ccc(O)c(Cc2ccccc2)c1	23
c1ccc2[nH]c(-c3cscn3)nc2c1	-6
CC1=NOC(=O)/C1=C/c1ccc2c(c1)OCO2	8

###

The molecules listed here are annotated with their growth inhibition.
assay: NCI Yeast Anticancer Drug Screen. Data for the rad18 strain (AID 177); settings: S. cerevisiae rad18 mutant growth inhibition; at 33.0 µM; stronger effect = higher value
This is part of a sample that, as a whole, favours compounds with a hit. Of some 79,000 tested, about 15% had one in any assay.

Molecule	Unit Spec	growth inhibition
NC(=O)c1c([N+](=O)[O-])cc(C(F)(F)F)cc1[N+](=O)[O-]	%	6
COC(=O)CCC(NC(=S)N/N=C(\C)c1ccccn1)C(=O)OC (stereo not drawn)	%	70
c1ccc2c(OCC3CO3)cccc2c1 (stereo not drawn)	%	95
CCCCOP(=O)(CCCP(=O)(OCCCC)OCCCC)OCCCC	%	8
Cc1ccc2nc(-c3cccc([N+](=O)[O-])c3)oc(=O)c2c1	%	-28
CCOC(=O)c1cc([N+](=O)[O-])c(Sc2ncnc3nc[nH]c23)c([N+](=O)[O-])c1	%	82
Cc1cc2c3ccccc3c3ccccc3c2nn1	%	12
Cc1ccc(NC(c2ccccc2)c2ccc3cccnc3c2O)cc1 (stereo not drawn)	%	-2
O=C(C[n+]1ccc2ccccc2c1)c1ccc2ccccc2c1	%	-3
OC1(c2ccccc2)CCCc2ccc(Cl)cc21 (stereo not drawn)	%	40
CCOC(=O)COc1c(OC)cc(C2C3=C(COC3=O)Oc3cc4c(cc32)OCO4)cc1OC (stereo not drawn)	%	-2
O=C1C(=O)c2ccccc2C(O)=C1C(C1=C(O)c2ccccc2C(=O)C1=O)c1ccc(Cl)cc1	%	64
CN(CCN(C)Cc1ccccc1)Cc1ccccc1	%	32
COc1cc(/C=N/Nc2nnc3c4ccccc4c4ncccc4c3n2)cc(OC)c1OC	%	29
COc1cccc2c1C(=O)c1c(O)c3c(c(O)c1C2=O)CC(O)(C(O)CO)CC3OC1CC(N2CCOCC2)C(O)C(C)O1 (stereo not drawn)	%	97
O=C1CC(=O)c2ccccc21	%	23
CCCCc1nnc(NS(=O)(=O)c2ccc(C)cc2)s1	%	36
COC(=O)NC1C(C)OC(OC2C/C=C(/C)C3C=CC4C(OC5CC(OC6CC(O)C(OC7CC(O)C(OC)C(C)O7)C(C)O6)C(O)C(C)O5)C(C)CC(C)C4C3(C)/C(O)=C3\C(=O)OC4(CC(C)C(CO)=CC4/C=C\2C)C3=O)CC1(C)[N+](=O)[O-] (stereo not drawn)	%	14
COC1=C(OC)C(=O)C(Sc2ccc3ccccc3c2)=CC1=O	%	92
CCCCN(CCCC)C(=O)/C=C/c1ccccc1	%	4
C=C(C(=C)n1nnc(C(=O)OC)c1C(=O)OC)n1nnc(C(=O)OC)c1C(=O)OC	%	0
O=[N+]([O-])c1cc(F)c(F)cc1Sc1cc(F)c(F)cc1[N+](=O)[O-]	%	98
CCN(CC)CCN(C)CCc1ccc(Br)cc1	%	66

###

experiment: NCI Yeast Anticancer Drug Screen. Data for the mec2-1 strain (AID 157); conditions: S. cerevisiae mec2-1 strain, at 11.0 µM
Compounds without any hit were thinned out: in the full panel of roughly 79,000, 15% have a hit. The source made the active and inactive calls. Cut-off read from the data, not from the text of the source: active = growth inhibition above about 70%; inactive = the rest.
Classes used: t = active, f = inactive

> print(dat)
                            smiles.notation  category
1   CCOC(=O)c1ccc(NC(=O)O/N=C(/Cl)C(C)C)cc1         f
2                    CC[N+](CC)(CC)c1ccccc1         f
3  CC(C)(C)CC(C)(C)c1cc(O)c(O)c(CN2CCCCC2)c1         f
4  Cc1cc(C)nc(NS(=O)(=O)c2ccc(Nc3c4ccccc4nc4c(C(=O)NCCO)cccc34)cc2)n1         f
5             Cc1cccc(/C=N/NC(=S)N2CCCC2)n1         t

###

Below is a list of entries, each paired with its recorded growth inhibition value.
assay: NCI Yeast Anticancer Drug Screen. Data for the rad50 strain (AID 155);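 also: 0% = growth of vehicle-only cultures of the same strain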; settings: S. cerevisiae rad50 strain growth inhibition; at 1.2 µM; stronger effect = higher value
This is part of a sample that, as a whole, favours compounds with a hit. Of some 79,000 tested, about 15% had one in any assay.
Reported Endpoint: growth inhibition (%)

> print(dat)
                                   compound  val
1  Cc1ccc(CC2(OCCN(C)C)CCC(C(C)(C)C)CC2)cc1 (stereo not given)   -3
2                 Cc1ccccc1N=Cc1cc(Cl)ccc1O   -5
3  CC(C)C(C)/C=C\C(C)C1CCC2C3=CC=C4CC(O)CCC4(C)C3CCC21C (stereo not given)   -1
4                    O=C(O)CNC(=S)Nc1ccccc1  -67
5     Cc1ccc(NCCNCCO)c2c(=O)c3cc(O)ccc3sc12    4

###

Listed molecules paired with reported growth inhibition
experiment: NCI Yeast Anticancer Drug Screen. Data for the mec2-1 strain (AID 157); details: S. cerevisiae mec2-1 strain, at 11.0 µM, stronger effect = higher value
Compounds without any hit were thinned out: in the full panel of roughly 79,000, 15% have a hit.
Reported Endpoint: growth inhibition (%)

> print(dat)
                                    molecule  reported.endpoint  val
 1             Brc1ccccc1-c1ncc(-c2ccccc2)o1  growth inhibition  -10
 2  CNC(=O)OCc1c(COC(=O)NC)c(-c2ccc(Cl)c(Cl)c2)n2c1SCC2  growth inhibition   -3
 3                   CC(C)(C)N=C(NO)c1ccccc1  growth inhibition    2
 4               O=C1Nc2ccccc2/C1=C/c1ccccc1  growth inhibition   -8
 5  C#CCN(Cc1ccc2nc(N)[nH]c(=O)c2c1)c1ccc(C(=O)NC(CCC(=O)O)C(=O)O)cc1 (stereo not given)  growth inhibition   17
 6  Nc1ncnc2c1ncn2C1OC(CO)CC1O (stereo not given)  growth inhibition    7
 7                 c1ccc(-c2cnc3ccccc3c2)cc1  growth inhibition  -12
 8                CN(C)c1ccc(N=Nc2ccncc2)cc1  growth inhibition   19
 9           CCCC/C=C/C(C)(C(=O)OCC)C(=O)OCC  growth inhibition   -1
10        CC(=O)Nc1ccc(/C=C/[N+](=O)[O-])cc1  growth inhibition   14
